# TARGET: Histone-lysine N-methyltransferase NSD2 (Homo sapiens) (UniProt O96028)
# Sequence (O96028 whole entry, looked up): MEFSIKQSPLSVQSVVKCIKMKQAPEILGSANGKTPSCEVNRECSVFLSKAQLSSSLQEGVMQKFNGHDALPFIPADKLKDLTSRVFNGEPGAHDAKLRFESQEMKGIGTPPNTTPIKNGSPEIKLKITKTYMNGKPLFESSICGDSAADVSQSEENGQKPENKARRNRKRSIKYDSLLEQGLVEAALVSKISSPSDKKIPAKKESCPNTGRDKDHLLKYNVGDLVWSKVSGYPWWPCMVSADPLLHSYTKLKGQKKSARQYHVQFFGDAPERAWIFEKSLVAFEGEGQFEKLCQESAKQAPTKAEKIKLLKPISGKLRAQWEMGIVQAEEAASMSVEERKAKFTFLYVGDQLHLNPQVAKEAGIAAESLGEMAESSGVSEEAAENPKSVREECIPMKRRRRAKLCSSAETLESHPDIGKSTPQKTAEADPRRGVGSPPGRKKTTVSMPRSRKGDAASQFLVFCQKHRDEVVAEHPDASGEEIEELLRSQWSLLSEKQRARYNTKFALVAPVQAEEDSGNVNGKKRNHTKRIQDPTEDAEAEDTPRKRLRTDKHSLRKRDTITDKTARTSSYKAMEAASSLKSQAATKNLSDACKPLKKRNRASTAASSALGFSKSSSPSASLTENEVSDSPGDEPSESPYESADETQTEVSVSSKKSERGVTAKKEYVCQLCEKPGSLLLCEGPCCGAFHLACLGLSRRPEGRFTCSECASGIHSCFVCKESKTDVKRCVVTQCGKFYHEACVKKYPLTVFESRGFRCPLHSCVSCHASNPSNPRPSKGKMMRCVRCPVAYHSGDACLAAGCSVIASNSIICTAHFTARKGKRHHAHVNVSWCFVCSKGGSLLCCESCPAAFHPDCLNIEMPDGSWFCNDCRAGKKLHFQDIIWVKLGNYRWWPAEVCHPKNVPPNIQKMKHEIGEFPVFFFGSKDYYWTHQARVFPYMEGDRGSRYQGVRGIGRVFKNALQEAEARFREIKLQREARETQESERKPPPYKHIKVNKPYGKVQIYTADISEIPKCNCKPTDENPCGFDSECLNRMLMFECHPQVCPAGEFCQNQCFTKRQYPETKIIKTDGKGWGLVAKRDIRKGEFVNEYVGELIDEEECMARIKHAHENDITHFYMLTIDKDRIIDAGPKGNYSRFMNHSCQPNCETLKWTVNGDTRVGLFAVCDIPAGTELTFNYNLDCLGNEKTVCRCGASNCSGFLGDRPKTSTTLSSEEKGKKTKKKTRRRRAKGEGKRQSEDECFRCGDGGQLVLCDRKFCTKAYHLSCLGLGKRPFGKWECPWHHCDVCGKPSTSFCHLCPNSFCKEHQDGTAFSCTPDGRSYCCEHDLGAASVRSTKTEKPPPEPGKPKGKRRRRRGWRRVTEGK
# EXPERIMENTAL_PROTOCOL: NSD2 histone methyltransferase activity blockers – biochemical, plate reader, single point, primary screen (AID 624260);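 also: inhibitors reduce the monomethyl H3K36 fluorescence signal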
# CONDITION: NSD2-SET H3K36me1 DELFIA fluorescence, at 12.5 µM, stronger effect = higher value
The campaign covered roughly 44,000 compounds. About 30 (0.07%) were called active. Roughly 1% stayed inconclusive and do not appear here. Many of the other results were omitted from the sample, so actives are more common in it than they were.
MEASURED_PROPERTY: inhibition (%)

{"CPD_SMILES": "COc1cccc(S(=O)(=O)N(C)C[C@H]2Oc3cc(C#CCN(C)C)ccc3S(=O)(=O)N([C@H](C)CO)C[C@H]2C)c1", "TARGET": "Histone-lysine N-methyltransferase NSD2 (Homo sapiens) (UniProt O96028)", "U": "%", "RESULT_NUMBER": 1.49}
{"CPD_SMILES": "Cc1ccc(-c2cnc3c(c2)C(=O)N([C@H](C)CO)C[C@H](C)[C@@H](CN(C)S(C)(=O)=O)O3)cc1", "TARGET": "Histone-lysine N-methyltransferase NSD2 (Homo sapiens) (UniProt O96028)", "U": "%", "RESULT_NUMBER": 4.66}
{"CPD_SMILES": "C[C@H]1CN([C@@H](C)CO)S(=O)(=O)c2ccc(Br)cc2O[C@H]1CN(C)C(=O)c1cnccn1", "TARGET": "Histone-lysine N-methyltransferase NSD2 (Homo sapiens) (UniProt O96028)", "U": "%", "RESULT_NUMBER": -5.84}
{"CPD_SMILES": "C[C@@H]1CN([C@H](C)CO)C(=O)c2cc(C#CCN(C)C)cnc2O[C@@H]1CN(C)C(=O)Cc1cccnc1", "TARGET": "Histone-lysine N-methyltransferase NSD2 (Homo sapiens) (UniProt O96028)", "U": "%", "RESULT_NUMBER": -1.47}
{"CPD_SMILES": "C[C@H](CO)N1C[C@H](C)[C@H](CN(C)Cc2cccnc2)Oc2ncc(C3=CCCC3)cc2C1=O", "TARGET": "Histone-lysine N-methyltransferase NSD2 (Homo sapiens) (UniProt O96028)", "U": "%", "RESULT_NUMBER": 1.28}
{"CPD_SMILES": "CC(C)CC#Cc1cnc2c(c1)C(=O)N([C@@H](C)CO)C[C@H](C)[C@@H](CN(C)S(=O)(=O)c1cn(C)cn1)O2", "TARGET": "Histone-lysine N-methyltransferase NSD2 (Homo sapiens) (UniProt O96028)", "U": "%", "RESULT_NUMBER": 2.14}
{"CPD_SMILES": "Cc1ccccc1-c1ccc2c(c1)O[C@@H](CN(C)Cc1ccc(C(=O)O)cc1)[C@H](C)CN([C@H](C)CO)S2(=O)=O", "TARGET": "Histone-lysine N-methyltransferase NSD2 (Homo sapiens) (UniProt O96028)", "U": "%", "RESULT_NUMBER": -1.98}
{"CPD_SMILES": "CCCC#Cc1cnc2c(c1)C(=O)N([C@H](C)CO)C[C@H](C)[C@@H](CN(C)S(=O)(=O)c1ccccc1)O2", "TARGET": "Histone-lysine N-methyltransferase NSD2 (Homo sapiens) (UniProt O96028)", "U": "%", "RESULT_NUMBER": 8.48}

Source: PubChem BioAssay AID624260
